Test system: fresh pieces of apple (variety: Mutsu)
Test: Ethylene concentration lowering effect for apple (ethylene in hermetically closed jar, tubular gas detector)
Settings: Table 9; DAY 3; single substances 3 g, mixtures 1.5 g + 1.5 g; 20 g apple, 23° C.

compound | measured-target | Concentration of ethylene DAY 3 (ppm)
O=C([O-])CC(O)(CC(=O)O)C(=O)O.[Na+] [Monosodium citrate, monosodium citrate] | fresh pieces of apple (variety: Mutsu) | 125
O=C(O)CC(O)(CC(=O)O)C(=O)O | fresh pieces of apple (variety: Mutsu) | 125
O=C([O-])CC(O)(CC(=O)[O-])C(=O)O.[Na+].[Na+] [Disodium citrate, disodium citrate] | fresh pieces of apple (variety: Mutsu) | 150
O=C([O-])O.[Na+] [Sodium hydrogencarbonate, sodium hydrogencarbonate] | fresh pieces of apple (variety: Mutsu) | 150
